Values compiled from PubChem BioAssay (NCI).

Below, each entry is listed with its recorded TGI.
Tested on: DU-145 prostate
Assay: NCI tumour cell line growth inhibition, 48 h

Below, 3 molecules whose answers are already recorded.
O=C1Cc2c([nH]c3ccc(Br)cc23)-c2ccccc2N1 ... > 100 µM
NS(=O)(=O)c1cccc(N=Cc2c(O)[nH]c3ccccc23)c1 ... > 25 µM
Cc1ccnc2[nH]c(-c3ccccc3)cc(=O)c12 ... > 100 µM

Now let's try a different one.
## Task Look up TGI for this molecule: O=S1(=O)c2ccccc2C(=NO)c2ccccc21
## Result > 100 µM

====

Test system: ACHN renal
Assay: NCI tumour cell line growth inhibition, 48 h
assay.metric: GI50

Example entries and their recorded answers appear below.
O=Nc1ccc2ccccc2c1O ... 5500 nM
CN1CCN(Cc2ccc(NC(=O)c3ccc(C#Cc4c(N)ncc5ccc(F)cc45)cc3)cc2C(F)(F)F)CC1 ... 970 nM

## Task Quick one: GI50 of O=C(Nc1ccccc1O)c1ccc(Oc2cccc(C(=O)Nc3ccccc3O)c2)cc1 ?
## Result 2640 nM

## Task // next record c1ccc(-n2nnnc2-c2cccc3ccccc23)cc1
## Result 840 nM

## Task Input C=C1C(=O)O[C@H]2[C@H]1CC/C(COC(=O)CSCC(=O)OC/C1=C/CC[C@@]3(C)O[C@H]3[C@H]3OC(=O)C(=C)[C@@H]3CC1)=C\CC[C@@]1(C)O[C@@H]21
## Result 1230 nM

## Task What would you report for C=C(c1ccc(C(=O)N(C)c2ccccc2N)cc1)C(C)N1C(=O)[C@H]2CCCN2C(=O)c2ccccc21 (stereo partly drawn) ?
## Result 36500 nM

## Task Query NS(=O)(=O)c1cccc(N=Cc2c(O)[nH]c3ccccc23)c1 next
## Result > 23100 nM

## Task Now consider COc1ccccc1C#Cc1ccccc1C#CCCCCCC#Cc1ccccc1C#Cc1ccccc1OC and answer again.
## Result > 100000 nM

====

System: NCI-H522 lung
Assay: NCI tumour cell line growth inhibition, 48 h
The following compounds are shown together with reported TGI values.
Form entry: value (µM) — number only.

Example entries begin here.
O=c1[nH]c(=O)n(Cc2ccccc2CO)cc1Sc1ccccc1 ... 3.81
S=C1Nc2ccc(Cl)cc2C2(c3ccccc3)N3CCN=C3NN12 (stereo not given) ... 48.1
C=C1C(=O)O[C@H]2[C@H]1CC/C(COC(=O)CSCC(=O)OC/C1=C/CC[C@@]3(C)O[C@H]3[C@H]3OC(=O)C(=C)[C@@H]3CC1)=C\CC[C@@]1(C)O[C@@H]21 ... 2.49

Here is another compound to look at.
## Task Return TGI measured with NCI-H522 lung given this compound: O=C1C(Br)=CC2(C=C1Br)CCNC1=C2C(=O)c2cccnc2C1=O
## Result 13.9

====

Tested on: IGROV1 ovarian
Experiment: NCI tumour cell line growth inhibition, 48 h
Recorded TGI for the following compounds
Give the quantity in µM, number only.

Below, 2 compounds whose answers are already recorded.
COc1cc(/C=C2\CCC(CN(C)C)C2=O)ccc1OC(=O)c1ccccc1 (stereo unspecified) ... 27.9
S=C1Nc2ccc(Cl)cc2C2(c3ccccc3)N3CCN=C3NN12 (stereo unspecified) ... 40.9

## Task Reported TGI for O=C(N/N=C/c1cc(Cl)cc(Cl)c1[O-])c1ccccc1O.O=C(N/N=C/c1cc(Cl)cc(Cl)c1[O-])c1ccccc1O.[Ni+2] : what is it?
## Result 1.74

====

Below, each entry is listed with its recorded TGI.
Test system: MDA-MB-231 breast
Assay: NCI tumour cell line growth inhibition, 48 h

## Task Can you look up the measured TGI of C=CCNC(=O)NC1=CSC2=NC(=O)C3(NN12)c1ccccc1-c1ccccc13 for me?
## Result > 10 µM

## Task Try O=c1cc(N2CCCC2)[nH]c(=O)n1-c1cccc(C(F)(F)F)c1 next.
## Result > 100 µM

## Task Thanks! And COc1cc(/C=C2\N=C(c3ccccc3)N(c3nc4c(OC)ccc(OC)c4s3)C2=O)cc(OC)c1OC ?
## Result > 100 µM

## Task // query: Cc1[nH]c2ccccc2c1C=Nc1ccc(N=Cc2c(C)[nH]c3ccccc23)cc1
## Result > 100 µM

## Task Could you do the same for C=CCC1(O)c2cccc(NCCO)c2C(=O)c2c(NCCO)cccc21 , please?
## Result > 100 µM

## Task One more compound: C=CC(=O)N[C@H]1CCOC[C@H]1Nc1ncc2cc(-c3c(Cl)c(OC)cc(OC)c3Cl)ccc2n1
## Result > 100 µM

## Task And for C=CCSC1=N/C(=C\c2ccccc2)C(=O)N1CC=C ?
## Result > 100 µM

====

System: HCC-2998 colon
Test: NCI tumour cell line growth inhibition, 48 h
assay.metric: log10 TGI (log10 of the value in µM)
Quick note: numbers are log10 of TGI, with µM as the unit.

Worked examples follow.
Cc1cc(-c2nc3ccccc3s2)ccc1NC(=O)[C@H](C)N ... 1.38
O=c1[nH]c(=O)n(Cc2ccccc2CO)cc1Sc1ccccc1 ... 1.49
C=C(C)C(=O)[C@@]12C(=O)[C@@H](C)CC[C@H]1[C@H](C)C[C@@H]2C=C(C)C ... 1.45
C/C(=N\N=C(/[Se])N1CC2CCC(CC2)C1)c1ccccn1 ... 0.18

## Task Record request: log10 TGI value, item CCN1c2ccccc2C(Cl)(c2ccc(N(C)C)cc2)c2ccccc21
## Result 1.37

## Task # iterate: COc1cc(/C=C2\CCC(CN(C)C)C2=O)ccc1OC(=O)c1ccccc1 (stereo not given)
## Result 1.48

====

The reader will find reported TGI values listed item by item below.
Tested on: UACC-62 melanoma
Assay: NCI tumour cell line growth inhibition, 48 h

Illustrative cases are given below, each with its answer.
O=C(O)c1cc(N=Cc2ccccc2O)cc(C(=O)O)c1 ... > 100 µM
O=c1[nH]cnc2[nH]ncc12 ... > 2560 µM

## Task # get_value(readout='TGI', item= CNC(=O)c1cc(NC(=O)N(CCC#N)CCN(C(=O)N[C@@H](Cc2ccccc2)C(=O)N[C@@H](CC(C)C)C(=O)NC)c2ccccc2)ccc1OC )
## Result > 55.4 µM

## Task And the next one, C=CCSC1=N/C(=C\c2ccccc2)C(=O)N1CC=C ?
## Result > 100 µM

====

System: SK-MEL-2 melanoma
Assay: NCI tumour cell line growth inhibition, 48 h
assay.metric: GI50

Answered cases to consult:
Cn1cc(-c2cnc3ccc4ccc(CS(=O)(=O)NCc5ccccn5)cc4c(=O)c3c2)cn1 ... 11.8 µM
CC(C)NC(=O)OCc1c(COC(=O)NC(C)C)c(-c2ccc(Cl)cc2)n2c1CCC2 ... 4.23 µM
Cc1cc(C)c(O)c(CN(C)Cc2cc(Cl)cc(Cl)c2O)c1 ... 6.52 µM
COc1ccccc1/C=N\N=C(N/N=C/c1ccccc1OC)N/N=C/c1ccccc1OC ... 5.51 µM
NC1=NC(c2ccc(Cl)cc2)C2=C(N1)/C(=C/c1ccc(Cl)cc1)CCC2 (configuration not stated) ... 37.7 µM

## Task Hello, I am looking for reported GI50 with SK-MEL-2 melanoma for O=C(N/N=C/c1ccccc1O)C(=O)Nc1ccc(F)cc1 . Could you help?
## Result 22.9 µM

## Task Could you do the same for C=C1C(=O)O[C@H]2[C@H]1CC/C(COC(=O)CSCC(=O)OC/C1=C/CC[C@@]3(C)O[C@H]3[C@H]3OC(=O)C(=C)[C@@H]3CC1)=C\CC[C@@]1(C)O[C@@H]21 , please?
## Result 2.12 µM

## Task Then this compound: C=CCC1(O)c2cccc(NCCO)c2C(=O)c2c(NCCO)cccc21
## Result > 100 µM

====

Tested on: KM12 colon
Experiment: NCI tumour cell line growth inhibition, 48 h
Below, each entry is listed alongside its reported TGI.

Answered cases to consult:
CC(C)c1ccc(/C=C2\CSCC3=C2NC(=S)NC3c2ccc(C(C)C)cc2)cc1 (stereo not given) ... > 100 µM
CCN1c2ccccc2C(Cl)(c2ccc(N(C)C)cc2)c2ccccc21 ... 15.6 µM
O=C(Nc1ccc(Cl)cc1)c1cc(-c2ccc(Cl)cc2)c2sc(=O)[nH]c2n1 ... 10.3 µM
O=C(O)c1cc2cc(OCc3ccccc3)c(OCc3ccccc3)cc2[nH]1 ... 36.2 µM
Cc1cc(-c2nc3ccccc3s2)ccc1NC(=O)[C@H](C)N ... 31.1 µM

## Task Find the recorded TGI belonging to O=C1Nc2cc([N+](=O)[O-])ccc2NC1/C(=N\Nc1ccccc1)C(O)c1cccc([N+](=O)[O-])c1 (stereo not given) and report it.
## Result > 100 µM

## Task Okay, and Cc1cccc(NC(=O)C(=O)C(C(=O)c2ccccc2F)C2OC(=O)c3ccccc32)c1Cl (stereo not given) ?
## Result 94.5 µM

## Task Another: Cc1cc(NS(=O)(=O)c2ccc(NC(=O)c3cccc4c(Nc5ccc(S(=O)(=O)N=C(N)N)cc5)c5ccccc5nc34)cc2)no1
## Result > 100 µM

## Task Same for COc1ccc2c(c1)N=C1CSC(c3ccccc3Cl)N1C2 (stereo not given)
## Result 18.4 µM

## Task Ok, now CSc1ccc2c3c(n(C[C@H](O)CO)c(=O)c2c1)-c1ccccc1C3=O
## Result 10.3 µM

## Task # iterate: Cc1ccc(-c2cc(C3=CC(=O)C=CC3=O)n(-c3ccc(S(N)(=O)=O)cc3)n2)cc1
## Result > 100 µM

## Task Repeat with O=C1Cc2c([nH]c3ccc(Br)cc23)-c2ccccc2N1
## Result > 100 µM

## Task Moving on to COC(=O)/C=C/c1cc(O)c2c(c1)[C@H](C(=O)OC)[C@@H](c1ccc(O)c(O)c1)O2
## Result 14.5 µM

## Task Also C=C(c1ccc(C(=O)N(C)c2ccccc2N)cc1)C(C)N1C(=O)[C@H]2CCCN2C(=O)c2ccccc21 (stereo not given in full) , if possible.
## Result > 100 µM

## Task Now consider CNC(=O)c1cc(NC(=O)N(CCC#N)CCN(C(=O)N[C@@H](Cc2ccccc2)C(=O)N[C@@H](CC(C)C)C(=O)NC)c2ccccc2)ccc1OC .
## Result > 100 µM

## Task // repeat for CCCCCCCCCCCCSC(=N)N and report
## Result 11.3 µM

## Task Same thing, different compound: CCCCCCCCCCCCCCCCCCNc1ccn(C2OC(COP(=O)(O)OCC3OC(n4cc(C)c(=O)[nH]c4=O)CC3N=[N+]=[N-])C(O)C2O)c(=O)n1 (stereo not given)
## Result 35 µM

## Task Thanks! And O=C1C(=O)N(c2ccc(Cl)cc2Cl)C(=O)C(=O)C1c1nc2ccccc2o1 ?
## Result > 100 µM

## Task Same again, this time with COC(=O)n1c(=O)n(-c2ccccc2)c(=O)n1C(=O)OC
## Result > 100 µM

## Task Same thing, different compound: COC(=O)/C=C(/C(=O)OC)c1c(C)c(C)c2c(C)cc(C)cc(C)c1-2
## Result > 100 µM

## Task Subsequent entry: CC(CO)C1C[C@H](O)[C@@]2(C)CC(=O)C=C(CO)[C@@H]2C1 (stereo not given in full)
## Result > 100 µM

## Task Next: O=c1c2cc(I)ccc2nc(Sc2ncccc2[N+](=O)[O-])n1Cc1ccccc1
## Result > 100 µM

## Task Can you handle C1CCC(OC2CSC2)OC1 (stereo not given) next?
## Result > 100 µM

## Task Please answer likewise for CCSC1=C(C)N(C=NC(C)(C)C)CC1
## Result > 100 µM

## Task Also check COc1ccc(Cl)cc1NC(=O)C(Br)C(Br)C(=O)O (stereo not given)
## Result 39.2 µM
